molecular target: Sentrin-specific protease 7 (Homo sapiens) (UniProt Q9BQF6); assay: SENP7 protease inhibitors, retest, confirmation, biochemical, luminescence, single concentration (AID 488917); conditions: recombinant SENP7, Z-RLRGG-aminoluciferin luminescence, 40 min; at 12.5 µM
Some of the results follow. Calls of active or inactive are those of the source.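 Rule for the calls: active = mean inhibition above about 50% in the one-dose retest (limit read from the data); inactive = the rest.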
Possible outcomes: y (active), n (inactive)

{"COMPOUND": "O=c1c2c(nc3n1CCCCC3)sc1c(O)cccc12", "ANSWER_LABEL": "y"}
{"COMPOUND": "COc1ccc(C(=O)COC(=O)c2ccc([N+](=O)[O-])s2)cc1OC", "ANSWER_LABEL": "n"}
{"COMPOUND": "C(=N\\Nc1ccc2ccccc2n1)/c1ccc2c(c1)OCO2", "ANSWER_LABEL": "y"}
{"COMPOUND": "O=C(Nc1ccn(Cc2ccccc2)n1)c1n[nH]c([N+](=O)[O-])c1Cl", "ANSWER_LABEL": "y"}
{"COMPOUND": "Cc1cccc(-c2noc(-c3ccc(F)cc3)n2)c1", "ANSWER_LABEL": "y"}
{"COMPOUND": "c1csc(-c2nc(-c3ccncc3)no2)c1", "ANSWER_LABEL": "y"}
{"COMPOUND": "COc1ccccc1C(=O)Nc1ccc(NC(=O)c2ccco2)c(C)c1", "ANSWER_LABEL": "y"}
{"COMPOUND": "COc1ccc(C(=O)Nc2ccccc2C(=O)N/N=C/c2ccc(O)c(OC)c2)cc1", "ANSWER_LABEL": "y"}
{"COMPOUND": "CN1C(=O)/C(=C\\c2cc(Br)cs2)c2ccccc21", "ANSWER_LABEL": "n"}
{"COMPOUND": "COc1cccc2sc(Nc3nc(C)c(C(C)=O)s3)nc12", "ANSWER_LABEL": "y"}
{"COMPOUND": "N/C(=N\\OC(=O)c1ccc2c(c1)OCO2)c1ccc(Br)cc1", "ANSWER_LABEL": "n"}
{"COMPOUND": "O=[N+]([O-])c1ccc(C=Nc2ccc(Cl)cc2Cl)s1", "ANSWER_LABEL": "n"}
{"COMPOUND": "COC(=O)c1ccc(NCC(=O)c2ccccc2)cc1", "ANSWER_LABEL": "y"}
{"COMPOUND": "COc1ccc(N=C(C)c2sc3ccccc3c2O)cc1", "ANSWER_LABEL": "n"}
{"COMPOUND": "O=C(Cn1ccc([N+](=O)[O-])n1)NCc1cccs1", "ANSWER_LABEL": "n"}
{"COMPOUND": "COc1ccc(-c2nc(-c3ccccc3)no2)c(OC)c1", "ANSWER_LABEL": "y"}
{"COMPOUND": "COc1cccc(C(=O)Nc2ccc(NC(=O)c3ccco3)cn2)c1", "ANSWER_LABEL": "y"}
{"COMPOUND": "CC1=NN(C(N)=S)C(=O)C1N=Nc1cc(Cl)ccc1Cl (centres undefined)", "ANSWER_LABEL": "n"}
{"COMPOUND": "N#Cc1ccc(C2N=C(c3ccccc3)NO2)cc1 (centres undefined)", "ANSWER_LABEL": "n"}
{"COMPOUND": "O=C(O)c1ccc2c3c(cccc13)C(=O)N(OS(=O)(=O)c1ccccc1)C2=O", "ANSWER_LABEL": "y"}
{"COMPOUND": "Cc1cccc(/C(N)=N/OC(=O)c2ccccc2Cl)c1", "ANSWER_LABEL": "y"}
{"COMPOUND": "O=C(Nc1ncc([N+](=O)[O-])s1)C1COc2ccccc2O1 (centres undefined)", "ANSWER_LABEL": "y"}
{"COMPOUND": "COc1ccc(-c2cc3ccc(OCc4nn[nH]n4)cc3oc2=O)cc1", "ANSWER_LABEL": "y"}
{"COMPOUND": "Cc1cccc(OC(=O)c2sc3ncn(C)c(=O)c3c2C)c1", "ANSWER_LABEL": "n"}

---

assay: Rh110 fluorescence interference by putative Apaf-1 inhibitors, confirmation, artefact control for Apaf-1 inhibitor project, biochemical, 20 µM (AID 504615); settings: quenched caspase reaction, at 20 µM, hits give high values
The other results are listed elsewhere or left out.
Some molecules, each annotated with its measured activation (fluorescence interference).
EXPERIMENTAL_ENDPOINT: activation (fluorescence interference) (%)

{"MOLECULE": "CCOC(=O)c1ccc(Nc2cc3ccccc3c(=O)[nH]2)cc1", "SCALE_UNIT": "%", "NUMBER": 11.7}
{"MOLECULE": "CC(C)c1ccccc1OCC(O)CN(CC(O)COc1cccc2ccccc12)C(C)C (centres undefined)", "SCALE_UNIT": "%", "NUMBER": 14.2}
{"MOLECULE": "CC(NC(=O)c1ccccc1SCC(=O)N1CCCC1)c1ccccc1 (centres undefined)", "SCALE_UNIT": "%", "NUMBER": -8.17}
{"MOLECULE": "Cc1ccc(C(=O)N/N=C\\c2cc(Br)c(Br)o2)cn1", "SCALE_UNIT": "%", "NUMBER": -11.2}
{"MOLECULE": "CCC(=O)Nc1c(S(=O)(=O)c2ccccc2)c2nc3ccccc3nc2n1Cc1ccccc1", "SCALE_UNIT": "%", "NUMBER": -0.44}
{"MOLECULE": "CCOC(=O)N1CCC(NC(=O)C(C)n2c3ccccc3c3cnn(C)c(=O)c32)CC1 (centres undefined)", "SCALE_UNIT": "%", "NUMBER": 17.6}
{"MOLECULE": "COc1ccc(NC(=O)CN(Cc2ccccc2)S(C)(=O)=O)cc1OC", "SCALE_UNIT": "%", "NUMBER": 2.48}
{"MOLECULE": "c1ccc(C[C@H]2CNCCN2CCC23CC4CC(CC(C4)C2)C3)cc1", "SCALE_UNIT": "%", "NUMBER": -3.75}
{"MOLECULE": "COc1ccc(S(=O)(=O)/N=C2\\C=C(NS(=O)(=O)c3ccccc3)C(=O)c3ccccc32)cc1", "SCALE_UNIT": "%", "NUMBER": -7.09}
{"MOLECULE": "Cc1c(-c2nn(C)c(=O)c3ccccc23)oc2ccc(F)cc2c1=O", "SCALE_UNIT": "%", "NUMBER": 2.5}
{"MOLECULE": "Cc1cc(C)n(-c2nc(SCC(=O)N3CCCC3)c3c4c(sc3n2)CCCC4)n1", "SCALE_UNIT": "%", "NUMBER": 8.64}
{"MOLECULE": "O=C(CCCN1CCc2[nH]c3ccc(F)cc3c2C1)c1ccc(F)cc1", "SCALE_UNIT": "%", "NUMBER": 4.85}
{"MOLECULE": "C#CCOCCOCCOCCNc1nc(N2CCN(C(=O)C([C@@H](C)O)n3cc([C@@H](N)CCCCN)nn3)CC2)nc(N2CCN(C(=O)[C@H](CCCCN)n3cc(CN)nn3)CC2)n1 (some centres undefined)", "SCALE_UNIT": "%", "NUMBER": -7.33}
{"MOLECULE": "Cc1[nH]n(-c2ccccc2)c(=O)c1/C=N/NC(=O)c1ccoc1C", "SCALE_UNIT": "%", "NUMBER": -3.23}
{"MOLECULE": "COCCNC(=O)Nc1ccc2nc(-c3ccco3)c(-c3ccco3)nc2c1", "SCALE_UNIT": "%", "NUMBER": -1.4}
{"MOLECULE": "Cc1ccc(-c2ccc(/C=N/NC(=O)CN3CCOCC3)o2)cc1[N+](=O)[O-]", "SCALE_UNIT": "%", "NUMBER": -3.95}
{"MOLECULE": "c1ccc(CSc2nnc(-c3ccco3)c(-c3ccco3)n2)cc1", "SCALE_UNIT": "%", "NUMBER": 6.26}
{"MOLECULE": "C#CCOCCOCCOCCNc1nc(N2CCN(C(=O)CCCCCCCCCCNC(=O)[C@H](CCCCN)n3cc(C)nn3)CC2)nc(N2CCN(C(=O)CCCCCCCCCCNC(=O)[C@H](CO)n3cc(CCCSC)nn3)CC2)n1", "SCALE_UNIT": "%", "NUMBER": 3.38}
{"MOLECULE": "CCC(C)(C)c1ccc(OCC(=O)N(C)C)c(C(C)(C)CC)c1", "SCALE_UNIT": "%", "NUMBER": 8.45}

---

assay: luciferase luminescence interference by compounds, confirmation, artefact control for SENP inhibitor project, biochemical, single concentration, SENP8 reaction pre-completed (AID 488919); details: Pre-incubated SENP8/Z-RLRGG-aminoluciferin, at 12.5 µM;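 note: plate controls were DMSO wells with completed reaction for no effect and substrate without enzyme for full effect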
The other results are listed elsewhere or left out. Calls of active or inactive are those of the source.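 How the source made its calls: active means mean inhibition above about 50% when retested at one dose (limit read from the data); inactive means the rest.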
Possible outcomes: Yes = active, No = inactive

{"CHEMICAL_STRUCTURE": "O=[N+]([O-])c1ccc2oc(-c3cccc(O)c3)nc2c1", "ANSWER_LABEL": "Yes"}
{"CHEMICAL_STRUCTURE": "c1ccc(CN=C2Nc3ccccc3CS2)nc1", "ANSWER_LABEL": "Yes"}
{"CHEMICAL_STRUCTURE": "O=C(Nc1ccc(Cl)cn1)c1ccc2c(c1)OCCO2", "ANSWER_LABEL": "Yes"}
{"CHEMICAL_STRUCTURE": "O=C(/C=C/c1ccco1)Nc1ccc(Oc2ccccc2)cc1", "ANSWER_LABEL": "No"}
{"CHEMICAL_STRUCTURE": "Brc1ccccc1C1Nc2cccc3cccc(c23)N1", "ANSWER_LABEL": "No"}
{"CHEMICAL_STRUCTURE": "O=C(c1ccc(F)cc1)n1c(=S)nc2ccccn21", "ANSWER_LABEL": "No"}
